Measured values drawn from patent US20030027228A1 for this set.

Subject of test: T1, MMAC1.388-403 biotin-ENEPFDEDQHTQITKV-COOH (SMILES …)
T1 construct: also called the 16 C-terminal amino acids of MMAC1
T1 peptide: Biotin-ENEPFDEDQHTQITKV-OH
Test description: peptide binding ELISA: GST-PDZ on plate, biotin-peptide/streptavidin-alkaline phosphatase complex, colorimetric
* marks the point of attachment. Biotin = O=C1N[C@H]2[C@H](CS[C@H]2CCCCC(=O)*)N1
Test readout: A405 (A405)
Record the value in A405, omitting the unit from your answer.

Data point: GST fusion of MMSC1 PDZ domain 9 (amino acids 1532-1613) (other, Expressed in E. coli, purified on glutathione-agarose, adsorbed to the ELISA plate; GST is placed N-terminal as in pGEX vectors; also called MMSc1 PDZ 9; PDZ domain number 9; not shown: glutathione S-transferase (GST) encoded by pGEX vectors (Pharmacia)) FPVDLQKKAGRGLGLSIVGKRNGSGVFISDIVKGGAADLDGRLIQGDQILSVNGEDMRNASQETVATILKCAQGLVQLEIGR ; A405 = 0.1

GST fusion of MMSC1 PDZ domain 5 (amino acids 685-771) (other, Expressed in E. coli, purified on glutathione-agarose, adsorbed to the ELISA plate; GST is placed N-terminal as in pGEX vectors; also called MMSc1 PDZ 5; PDZ domain number 5; not shown: glutathione S-transferase (GST) encoded by pGEX vectors (Pharmacia)) KIVELVKDCKGLGFSILDYQDPLDPTRSVIVIRSLVADGVAERSGGLLPGDRLVSVNEYCLDNTSLAEAVEILKAVPPGLVHLGICK yielded A405 of 0

A405 in this record for GST fusion of MMSC1 PDZ domain 7 (amino acids 1238-1320) (other, Expressed in E. coli, purified on glutathione-agarose, adsorbed to the ELISA plate; GST is placed N-terminal as in pGEX vectors; also called MMSc1 PDZ 7; PDZ domain number 7; not shown: glutathione S-transferase (GST) encoded by pGEX vectors (Pharmacia)) HIIELEKDKNGLGLSLAGNKDRSRMSIFVVGINPEGPAAADGRMHIGDELLEINNQILYGRSHQNASAIIKTAPSKVKLVFIR : 1.25
